# Tested on: MONO-MAC-6;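 note: cell viability assay measuring growth inhibition of human MONO-MAC-6 cells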
# PROTOCOL_SUMMARY: cells
# Format: functional, cell-based, Homo sapiens
# TEST_CONDITIONS: mono-mac-6
# Description: SANGER: Inhibition of human MONO-MAC-6 cell growth in a cell viability assay.
Where a SMILES comes first, the peptide text is derived from it. The star is where a group is joined. Cbz = O=C(OCc1ccccc1)*
READOUT: IC50 (nM)

| COMPOUND | VALUE_OBSERVED |
| --- | --- |
| CC(C)C[C@@H](C=O)NC(=O)[C@H](CC(C)C)NC(=O)[C@H](CC(C)C)NC(=O)OCc1ccccc1 [MG-132] (Cbz-Leu-Leu-Leu-aldehyde) | 718 |

* * *

Below, each of the molecules is paired with its reported IC50 value.
# System: KALS-1;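 note: growth inhibition of KALS-1 cells, determined with a cell viability assay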
# PROTOCOL_SUMMARY: cells
# Format: functional, cell-based, Homo sapiens
# TEST_CONDITIONS: Homo sapiens, KALS-1; read-out: IC50
# Description: SANGER: Inhibition of human KALS-1 cell growth in a cell viability assay.
READOUT: IC50 (nM)

| MOLECULE | INEQUALITY_SIGN | VALUE_OBSERVED |
| --- | --- | --- |
| O=C1NC(=O)c2c1c(-c1ccccc1Cl)cc1[nH]c3ccc(O)cc3c21 | = | 834 |
| CC1(C)CCC(c2ccc(Cl)cc2)=C(CN2CCN(c3ccc(C(=O)NS(=O)(=O)c4ccc(N[C@H](CCN5CCOCC5)CSc5ccccc5)c(S(=O)(=O)C(F)(F)F)c4)cc3)CC2)C1 [NAVITOCLAX] | > | 2000 |
| C/C(=C\c1csc(C)n1)[C@@H]1C[C@@H]2O[C@]2(C)CCC[C@H](C)[C@H](O)[C@@H](C)C(=O)C(C)(C)[C@@H](O)CC(=O)O1 [PATUPILONE] | = | 3.19 |
| CC1=C(/C=C/C(C)=C/C=C/C(C)=C/C(=O)O)C(C)(C)CCC1 [TRETINOIN] | > | 10000 |
| O=S(=O)(O)c1ccc2cc(/N=N/c3cc(S(=O)(=O)O)c4cccnc4c3O)ccc2c1 | > | 16000 |
| CC(C)C[C@H](NC(=O)[C@H](Cc1ccccc1)NC(=O)c1cnccn1)B(O)O [BORTEZOMIB] | = | 0.925 |
| NC(=O)Nc1cc(-c2cccc(F)c2)sc1C(=O)N[C@H]1CCCNC1 [AZD-7762] | = | 326 |
| NC(=O)c1ccc(N(C(N)=O)c2c(F)cccc2F)nc1-c1ccc(F)cc1F [VX-702] | > | 2000 |

* * *

# Tested on: LB831-BLC;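 note: growth inhibition of LB831-BLC cells, read out with a cell viability assay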
# PROTOCOL_SUMMARY: cells
# Assay type: functional, cell-based, Homo sapiens
# TEST_CONDITIONS: Homo sapiens, LB831-BLC
# Description: SANGER: Inhibition of human LB831-BLC cell growth in a cell viability assay.
Below, each of the compounds is paired with its reported IC50 value.
READOUT: IC50

| COMPOUND | VALUE_OBSERVED |
| --- | --- |
| COC(=O)[C@H](CCSC)NC(=O)c1ccc(NC[C@@H](N)CS)cc1-c1ccccc1 | > 1020 nM |
| C=CC(=O)N1CCCC(Nc2nc(Nc3ccc(N(C)C(=O)CC)cc3)nc3[nH]cnc23)C1 (stereo not drawn) | 2950 nM |
| NC1(c2ccc(-c3nc4ccn5c(=O)[nH]nc5c4cc3-c3ccccc3)cc2)CCC1 | > 4000 nM |
| C[C@@H](Oc1cc(-c2cnn(C3CCNCC3)c2)cnc1N)c1c(Cl)ccc(F)c1Cl | > 2000 nM |
| CC1(C)CCC(c2ccc(Cl)cc2)=C(CN2CCN(c3ccc(C(=O)NS(=O)(=O)c4ccc(N[C@H](CCN5CCOCC5)CSc5ccccc5)c(S(=O)(=O)C(F)(F)F)c4)cc3)CC2)C1 | > 2000 nM |
| O=C1NC(=O)c2c1c(-c1ccccc1Cl)cc1[nH]c3ccc(O)cc3c21 | > 2000 nM |
| NC(=O)Nc1cc(-c2cccc(F)c2)sc1C(=O)N[C@H]1CCCNC1 | > 2000 nM |
| O=C(NCCCNc1nc(Nc2cccc(NC(=O)N3CCCC3)c2)ncc1I)c1cccs1 | > 5000 nM |

* * *

# Test system: RPMI-2650
# PROTOCOL_SUMMARY: cells
# Type: functional, cell-based
# TEST_CONDITIONS: Homo sapiens
# Description: SANGER: Inhibition of human RPMI-2650 cell growth in a cell viability assay.
READOUT: IC50

| STRUCTURE_NOTATION | VALUE_OBSERVED |
| --- | --- |
| CC1=C(/C=C/C(C)=C/C=C/C(C)=C/C(=O)O)C(C)(C)CCC1 | > 10 µM |
| CCCCCCCCCCCC1=C(O)C(=O)C=C(O)C1=O | 7.32 µM |
| NC(=O)Nc1cc(-c2cccc(F)c2)sc1C(=O)N[C@H]1CCCNC1 | > 2 µM |
| COc1ccc(-c2cc3nccn3c(Nc3ncccc3C(N)=O)n2)cc1OC | 0.696 µM |
| NC1(c2ccc(-c3nc4ccn5c(=O)[nH]nc5c4cc3-c3ccccc3)cc2)CCC1 | > 4 µM |
| OC[C@H](Cc1ccccc1)Nc1nc(Oc2ccc3c(c2)CCC3)nc2c1ncn2Cc1ccc(-c2ccccc2)cc1 | > 10.2 µM |

* * *

# Test system: RL95-2;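 note: RL95-2 growth inhibition determined through a cell viability readout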
# PROTOCOL_SUMMARY: cells
# Format: functional, cell-based, Homo sapiens
# TEST_CONDITIONS: rl95-2
# Description: SANGER: Inhibition of human RL95-2 cell growth in a cell viability assay.
pIC50: −log10 of the molar value. Where a SMILES comes first, the peptide text is derived from it. The star is where a group is joined. Cbz = O=C(OCc1ccccc1)*

| COMPOUND | pIC50 |
| --- | --- |
| CC(C)C[C@@H](C=O)NC(=O)[C@H](CC(C)C)NC(=O)[C@H](CC(C)C)NC(=O)OCc1ccccc1 [MG-132] (Cbz-Leu-Leu-Leu-aldehyde) | < 6.00 |

* * *

# Test system: NCI-H1882;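 note: growth inhibition of the cell line, determined with a viability assay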
# PROTOCOL_SUMMARY: cells
# Type: functional, cell-based, Homo sapiens
# TEST_CONDITIONS: Homo sapiens, NCI-H1882
# Description: SANGER: Inhibition of human NCI-H1882 cell growth in a cell viability assay.
Below, each of the compounds is paired with its reported IC50 value.

| STRUCTURE_NOTATION | IC50 |
| --- | --- |
| O=S(=O)(O)c1ccc2cc(/N=N/c3cc(S(=O)(=O)O)c4cccnc4c3O)ccc2c1 | > 16000 nM |
| Cc1ccc(C(=O)Nc2ccc(CN3CCN(C)CC3)c(C(F)(F)F)c2)cc1C#Cc1cnc2cccnn12 | > 512 nM |
| Cc1cc(N2CCOCC2)cc2[nH]c(-c3c(NC[C@@H](O)c4cccc(Cl)c4)cc[nH]c3=O)nc12 | 956 nM |
| Cc1ccc(NC(=O)c2ccc(CN3CCN(C)CC3)cc2)cc1Nc1nccc(-c2cccnc2)n1 | > 2000 nM |
| CC(C)C[C@H](NC(=O)[C@H](Cc1ccccc1)NC(=O)c1cnccn1)B(O)O | 1.2 nM |

* * *

# Test system: SN12C;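 note: growth inhibition of human SN12C cells, measured by a cell viability assay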
# PROTOCOL_SUMMARY: cells
# Type: functional, cell-based
# TEST_CONDITIONS: Homo sapiens
# Description: SANGER: Inhibition of human SN12C cell growth in a cell viability assay.

| STRUCTURE_NOTATION | IC50 |
| --- | --- |
| CC1=C(/C=C/C(C)=C/C=C/C(C)=C/C(=O)O)C(C)(C)CCC1 | > 10 µM |
| COC(=O)[C@H](CCSC)NC(=O)c1ccc(NC[C@@H](N)CS)cc1-c1ccccc1 | > 1.02 µM |
| O=C1NC(=O)c2c1c(-c1ccccc1Cl)cc1[nH]c3ccc(O)cc3c21 | > 2 µM |
| CS(=O)(=O)N1CCN(Cc2cc3nc(-c4cccc5[nH]ncc45)nc(N4CCOCC4)c3s2)CC1 | > 4 µM |
| C/C(=C\c1csc(C)n1)[C@@H]1C[C@@H]2O[C@]2(C)CCC[C@H](C)[C@H](O)[C@@H](C)C(=O)C(C)(C)[C@@H](O)CC(=O)O1 | 0.00939 µM |
| CCCCCCCCCCCC1=C(O)C(=O)C=C(O)C1=O | 26.6 µM |

* * *

# Test system: LC4-1
# PROTOCOL_SUMMARY: cells
# Assay type: functional, cell-based, Homo sapiens
# TEST_CONDITIONS: Homo sapiens, LC4-1
# Description: SANGER: Inhibition of human LC4-1 cell growth in a cell viability assay.
pIC50: −log10 of the molar value. Where a SMILES comes first, the peptide text is derived from it. The star is where a group is joined. Cbz = O=C(OCc1ccccc1)*

| COMPOUND | pIC50 |
| --- | --- |
| C=CC(=O)N1CCCC(Nc2nc(Nc3ccc(N(C)C(=O)CC)cc3)nc3[nH]cnc23)C1 (centres undefined) | < 4.99 |
| Cc1cc(N2CCOCC2)cc2[nH]c(-c3c(NC[C@@H](O)c4cccc(Cl)c4)cc[nH]c3=O)nc12 | < 5.29 |
| Cc1ccc(NC(=O)c2ccc(CN3CCN(C)CC3)cc2)cc1Nc1nccc(-c2cccnc2)n1 | < 5.70 |
| CC(C)C[C@@H](C=O)NC(=O)[C@H](CC(C)C)NC(=O)[C@H](CC(C)C)NC(=O)OCc1ccccc1 [MG-132] (Cbz-Leu-Leu-Leu-aldehyde) | 6.36 |
